Target: PKR T384W (Homo sapiens, UniProt P30613, T384W)
Sequence (P30613 whole entry T384W): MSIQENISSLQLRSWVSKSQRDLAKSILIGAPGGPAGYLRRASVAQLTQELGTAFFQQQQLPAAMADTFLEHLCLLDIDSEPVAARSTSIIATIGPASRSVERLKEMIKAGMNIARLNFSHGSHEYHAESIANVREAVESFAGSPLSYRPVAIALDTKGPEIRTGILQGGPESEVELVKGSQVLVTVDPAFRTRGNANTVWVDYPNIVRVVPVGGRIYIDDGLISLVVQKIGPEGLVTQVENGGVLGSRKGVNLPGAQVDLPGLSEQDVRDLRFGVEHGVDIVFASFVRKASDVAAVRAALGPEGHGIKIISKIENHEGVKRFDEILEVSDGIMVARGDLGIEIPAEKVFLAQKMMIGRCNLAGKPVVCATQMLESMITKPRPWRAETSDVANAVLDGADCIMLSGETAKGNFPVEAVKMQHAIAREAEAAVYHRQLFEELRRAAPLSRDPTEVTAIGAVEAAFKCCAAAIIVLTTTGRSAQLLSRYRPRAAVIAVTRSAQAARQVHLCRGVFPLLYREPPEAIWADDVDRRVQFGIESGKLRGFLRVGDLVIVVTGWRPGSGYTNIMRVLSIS
Test: PKR T384W Single Point Percent Activation Assay
Format: biochemical
Conditions: compound at 1 μM; read-out: % Act. T384W
assayEndpoint: activation at 1 µM

molecule: Cn1c2cc([S+](C)[O-])sc2c2cnn(Cc3ccccc3F)c(=O)c21 (stereo not drawn)
assayEndpoint: activation at 1 µM
result: 101 to 500%

molecule: Cn1c2cc([S+](C)[O-])sc2c2cnn(Cc3cccc(O)c3)c(=O)c21 (stereo not drawn)
assayEndpoint: activation at 1 µM
result: 101 to 500%

molecule: COc1cc(F)c(S(=O)(=O)N2CCCN(S(=O)(=O)c3cccc(N)c3)CC2)c(F)c1
assayEndpoint: activation at 1 µM
result: 101 to 500%

molecule: Nc1cccc(S(=O)(=O)N2CCN(S(=O)(=O)c3ccc4c(c3)OCCO4)CC2)c1
assayEndpoint: activation at 1 µM
result: 1 to 100%

molecule: COc1cc(F)c(S(=O)(=O)N2CCN(S(=O)(=O)c3cccc(N)c3)CC2)c(F)c1
assayEndpoint: activation at 1 µM
result: 101 to 500%

molecule: COc1cccc(Cn2ncc3c4sc([S+](C)[O-])cc4n(C)c3c2=O)c1 (stereo not drawn)
assayEndpoint: activation at 1 µM
result: 1 to 100%

molecule: CSc1cc2c(s1)c1cnn(Cc3cccc(O)c3)c(=O)c1n2C
assayEndpoint: activation at 1 µM
result: 101 to 500%

molecule: CCCCCn1ncc2c3sc(C)cc3n(C)c2c1=O
assayEndpoint: activation at 1 µM
result: 101 to 500%

molecule: Nc1cccc(S(=O)(=O)N2CCN(S(=O)(=O)c3c(F)cccc3F)CC2)c1
assayEndpoint: activation at 1 µM
result: 101 to 500%

molecule: O=S(=O)(c1ccc2c(c1)OCCO2)N1CCN(S(=O)(=O)c2c(F)cccc2F)CC1
assayEndpoint: activation at 1 µM
result: 1 to 100%

molecule: O=S(=O)(c1ccc2c(c1)OCCO2)N1CCCN(S(=O)(=O)c2c(F)cccc2F)CC1
assayEndpoint: activation at 1 µM
result: 101 to 500%

molecule: Nc1cccc(S(=O)(=O)N2CCCN(S(=O)(=O)c3ccc4c(c3)OCCO4)CC2)c1 [drawing 23]
assayEndpoint: activation at 1 µM
result: 101 to 500%

====

Attribute: AC50
Target: PKR G332S (Homo sapiens, UniProt P30613, G332S)
Sequence (P30613 whole entry G332S): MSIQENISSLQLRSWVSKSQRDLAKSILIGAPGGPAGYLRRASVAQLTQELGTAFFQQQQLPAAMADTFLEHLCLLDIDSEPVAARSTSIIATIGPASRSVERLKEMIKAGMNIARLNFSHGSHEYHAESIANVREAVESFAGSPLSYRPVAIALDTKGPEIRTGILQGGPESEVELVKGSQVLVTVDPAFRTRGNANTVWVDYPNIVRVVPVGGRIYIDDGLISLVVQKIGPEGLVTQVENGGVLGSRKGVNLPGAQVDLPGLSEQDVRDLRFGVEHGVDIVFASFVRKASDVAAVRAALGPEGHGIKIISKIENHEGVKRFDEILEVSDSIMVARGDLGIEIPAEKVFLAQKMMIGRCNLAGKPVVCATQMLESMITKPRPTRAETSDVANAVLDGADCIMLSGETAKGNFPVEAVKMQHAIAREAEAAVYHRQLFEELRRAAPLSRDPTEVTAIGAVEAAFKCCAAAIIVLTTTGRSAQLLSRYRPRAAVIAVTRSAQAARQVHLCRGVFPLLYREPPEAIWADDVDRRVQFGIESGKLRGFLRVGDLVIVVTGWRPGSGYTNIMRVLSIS
Assay: PKR Mutant Assay (AC50), PKR G332S
Type: biochemical

compound: COc1cccc(Cn2ncc3c4sc([S+](C)[O-])cc4n(C)c3c2=O)c1 (stereo not shown)
AC50: < 100 nM
--
compound: Cn1c2cc([S+](C)[O-])sc2c2cnn(Cc3cccc(O)c3)c(=O)c21 (stereo not shown)
AC50: < 100 nM
--
compound: Cn1c2cc([S+](C)[O-])sc2c2cnn(Cc3ccccc3F)c(=O)c21 (stereo not shown)
AC50: > 500 nM
--
compound: CSc1cc2c(s1)c1cnn(Cc3cccc(O)c3)c(=O)c1n2C
AC50: < 100 nM

====

Target: PKR R532W (Homo sapiens, UniProt P30613, R532W)
Sequence (P30613 whole entry R532W): as the sequence (P30613 whole entry T384W) above, with W384T, R532W counted along it
Experiment: PKR Mutant Assay (AC50), PKR R532W
Type: biochemical
// AC50 lookup, one value per entry

molecule: Cn1c2cc([S+](C)[O-])sc2c2cnn(Cc3ccccc3F)c(=O)c21 (stereo not shown)
AC50: > 500 nM
--
molecule: Cn1c2cc([S+](C)[O-])sc2c2cnn(Cc3cccc(O)c3)c(=O)c21 (stereo not shown)
AC50: < 100 nM
--
molecule: CSc1cc2c(s1)c1cnn(Cc3cccc(O)c3)c(=O)c1n2C
AC50: < 100 nM
--
molecule: COc1cccc(Cn2ncc3c4sc([S+](C)[O-])cc4n(C)c3c2=O)c1 (stereo not shown)
AC50: < 100 nM
